tested target: T1, human CD137 expressed on CHO cells (human, UniProt Q07011 18-255)
T1 construct: also called CHO huCD137; CHO human CD137 cells
experiment: FMAT/Mirrorball on CHO huCD137 cells
Procedure: Binding of His-tagged molecules to CHO human CD137, CHO parent and CHO human PD1 cells was assessed using Fluorescence Microvolume Assay Technology (FMAT). […] Fluorescence emission was then measured on the TTP Mirrorball plate reader in the FL2 (502 nm-537 nm) and FL5 (677-800 nm) channels following excitation at 488 nm and 640 nm. Data was gated on FL5 perimeter and peak intensity and the FL2 median mean fluorescence intensity of the gated data used for determination of VH binding. […]
measure name: EC50 (nM)
Answers are plain numbers, in nM.

Field: example entries. Status: answers known.
binder="003BB172-E01-9 (VHH, Human VH single domain antibody, monovalent) VHH: EVQLVESGGGLVQPGGSLRLSCAASGFTFSNYGMHWVRQAPGKGLEWVAVISNDGNTKTYADSVKGRFTISRDNSKNTLYLQMNSLRAEDTAVYYCAQDETTTVTASYYFDYWGQGTLVTVSS" data_value=0.849
binder="003BB172-E01-13 (VHH, Human VH single domain antibody, monovalent; also called CD137D; 172E1-13) VHH: EVQLVESGGGVVQPGGSLRLSCAASGFTFSNYGMHWVRQAPGKGLEWVAVISNDGNTKTYADSVKGRFTISRDNSKNTLYLQMNSLRAEDTAVYYCAQDETTTVTASYYFDYWGQGTLVTVSS" data_value=0.954

Give EC50 for each listed item.
1. 003BB172-E01-10 (VHH, Human VH single domain antibody, monovalent) VHH: EVQLVESGGGLVQPGRSLRLSCAASGFTFSNYGMHWVRQAPGKGLEWVAVISNDGNTKTYADSVKGRFTISRDNSKNTLYLQMNSLRTEDTAVYYCAQDETTTVTASYYFDYWGQGTLVTVSS
2. 003BB172-E01-5 (VHH, Human VH single domain antibody, monovalent) VHH: EVQLVESGGGLVQPGGSLRLSCAASGFTFSNYGMHWVRQAPGKRLEWVAVISNDGNTKTYADSVKGRFTISRDNSKNTLYLQMNSLRTEDTAVYYCAQDETTTVTASYYFDYWGQGTLVTVSS

1: 1.22; 2: 1.29
